All figures here come from the DeepSol protein solubility set.

- protocol_text: soluble on expression in E. coli; label from the status in PepcDB or PDB records
quantity_measured: soluble on expression in E. coli

sequence_code=DSMADITACPGTDTCNLGISSSTGLSVEIEKMLLEEFPDTVFNKNIKIKISGCMNACGQHTIGNIGFHGMSIKNGTNVLPAMQVMLGGGLEPDGTGTIADKILKLPTRRCVEAVREILTDYDTNATEGEYFNDYYRRQVAAEKMYFYKLLKPLSDLETLTELDYIDL measured_result="not soluble"
sequence_code=MGSDKIHHHHHHMFFEGVEQLIEEILKLRKQGLSFRKIAQALNTTVGKVHYRYKKHEELQHQKGQAKPAAKGEWQLPGSYPVTEITLLPQGPTTLYAFWDTSEQTRGLVSYQTDKDWEQLEKRLRLYDVTSLLFDGRRANRYVDIHLPEMTNNWLIEHVEPNCTYLIDLGVITPSGAFLPVVRSTPIETPRQRNDQYNFRKEDVLDWQYGLSEEPKWLEHFSTYSYYEKTK measured_result="not soluble"
